The reported numbers originate from patent US20230235054A1.

Recorded kon by entry
assayedTarget: T1, RatNectin4-His (rat, UniProt D3ZET1 31-348)
T1 construct: Immobilized on the SPR chip; not shown: His tag
T1 sequence: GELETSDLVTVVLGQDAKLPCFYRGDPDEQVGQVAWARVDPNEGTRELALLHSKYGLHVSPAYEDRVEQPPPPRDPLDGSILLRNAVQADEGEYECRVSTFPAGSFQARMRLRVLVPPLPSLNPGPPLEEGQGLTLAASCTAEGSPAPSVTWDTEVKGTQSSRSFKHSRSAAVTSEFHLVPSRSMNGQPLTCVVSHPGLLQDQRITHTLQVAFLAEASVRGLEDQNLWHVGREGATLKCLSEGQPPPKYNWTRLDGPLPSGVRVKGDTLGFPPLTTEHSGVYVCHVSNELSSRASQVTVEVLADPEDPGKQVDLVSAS
assayInfo: SPR, RatNectin4-His immobilized, pH 6.5
Lab book: enter the figure in M⁻¹ s⁻¹, no units written.

Consider the binder BAP-143-00-01 (antibody, V domains shown, Used as a conjugate with a linker payload (CAB ADC)) VH: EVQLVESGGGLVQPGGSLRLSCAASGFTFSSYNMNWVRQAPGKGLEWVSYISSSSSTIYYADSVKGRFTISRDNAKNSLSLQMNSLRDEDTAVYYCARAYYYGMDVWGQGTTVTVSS VL: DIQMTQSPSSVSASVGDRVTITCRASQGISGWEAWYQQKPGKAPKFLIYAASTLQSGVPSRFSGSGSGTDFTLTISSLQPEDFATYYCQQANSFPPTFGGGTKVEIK and give its measured kon.
700000

Consider the binder BAP-143-07-03-12 (antibody, V domains shown, Used as a conjugate with a linker payload (CAB ADC)) VH: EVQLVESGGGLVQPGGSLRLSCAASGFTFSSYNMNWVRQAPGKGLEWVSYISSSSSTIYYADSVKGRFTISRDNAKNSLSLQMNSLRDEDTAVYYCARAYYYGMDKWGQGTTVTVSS VL: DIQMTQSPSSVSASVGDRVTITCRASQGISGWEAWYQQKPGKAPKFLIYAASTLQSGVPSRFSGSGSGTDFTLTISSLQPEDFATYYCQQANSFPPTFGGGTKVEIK and give its measured kon.
787000

Consider the binder BAP-143-06-24-16 (antibody, V domains shown, Used as a conjugate with a linker payload (CAB ADC)) VH: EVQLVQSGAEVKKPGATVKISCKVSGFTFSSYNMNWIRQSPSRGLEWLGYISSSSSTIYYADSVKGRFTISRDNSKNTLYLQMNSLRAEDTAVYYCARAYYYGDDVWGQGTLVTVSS VL: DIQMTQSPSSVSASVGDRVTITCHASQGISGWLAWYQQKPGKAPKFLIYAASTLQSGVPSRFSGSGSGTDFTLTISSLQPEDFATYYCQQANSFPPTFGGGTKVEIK and give its measured kon.
3.39e+06

Consider the binder BAP-143-06-33-16 (antibody, V domains shown, Used as a conjugate with a linker payload (CAB ADC)) VH: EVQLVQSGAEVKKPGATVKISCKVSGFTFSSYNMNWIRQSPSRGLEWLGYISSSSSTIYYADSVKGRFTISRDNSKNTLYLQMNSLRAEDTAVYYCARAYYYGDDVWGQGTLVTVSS VL: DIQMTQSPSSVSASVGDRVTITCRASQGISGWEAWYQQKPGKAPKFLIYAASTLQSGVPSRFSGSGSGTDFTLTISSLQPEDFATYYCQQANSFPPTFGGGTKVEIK and give its measured kon.
3.01e+06
